B1: Proto-oncogene vav, residues 782 to 842; numbered along this chain, P15498 (parent)
chain: KYFGTAKARYDFCARDRSELSLKEGDIIKILNKKGQQGWWRGEIYGRVGWFPANYVEEDYS

variants of: B1; experiment: abundance fitness (aPCA) (normalised: wild type 0, dead -1); higher = more abundant; growth selection in yeast, the domain comes from the species named; settings: Homo sapiens
Each entry below lists one item and its recorded abundance fitness value.

| seq.string | abundance fitness |
| --- | --- |
| KYFGTAKARYDFCARDRSELSLKEGDIIKILNKKGQYGWWRGEIYGRVGWFPANYVEEDYS [Q37Y] | 0.048 |
| KYFGTAKARYDFCARDRSRLSLKEGDIIKILNKKGQQGWWRGEIYGRVGWFPANYVEEDYS [E19R] | -1.08 |
| KYFGTAKARYDFCARDRSELKLKEGDIIKILNKKGQQGWWRGEIYGRVGWFPANYVEEDYS [S21K] | -0.627 |
| KYFGTAKARYDFCARDRSELSLKEGDIIKILNKKGQQQWWRGEIYGRVGWFPANYVEEDYS [G38Q] | -0.186 |
| KYFGTAKARYDFCARDRSELSLKEGDIIKILNKKGQQGWWRGEPYGRVGWFPANYVEEDYS [I44P] | -0.556 |
| KYFGTAKARYDFCARDRSELSLKEGDIIKILNKKEQQGWWRGEIYGRVGWFPANYVEEDYS [G35E] | -0.165 |
| KYFGTAKARYDFCARPRSELSLKEGDIIKILNKKGQQGWWRGEIYGRVGWFPANYVEEDYS [D16P] | -0.839 |
| KYFGTAKARYDFCARDRSELSLKEGDIIKILNKKGQQGWWRGRIYGRVGWFPANYVEEDYS [E43R] | -0.31 |
| KYFGTAKARYDFCARDRSELSLKEGDIIKILNKKGQQGWWRGEIYGRVGWFPANYVEEDIS [Y60I] | -0.024 |
| KYFGTAKARYDFCARDRSELSLKEGDIIKILNKLGQQGWWRGEIYGRVGWFPANYVEEDYS [K34L] | -0.268 |
| KYFGTAKARYDFCARDRSELSLKEGDIIKILNKKGQQGWWRGEIYTRVGWFPANYVEEDYS [G46T] | -0.542 |
| KYFGTAKARYDFCARDRSELSLKEGDIIKILNKKGQQGWWRGEIYGRVGWFPALYVEEDYS [N54L] | -0.219 |
| KYFGTAKARYDFCARDRSELSLKEGDIIKILNKKGQQGWWRGEIYGRVLWFPANYVEEDYS [G49L] | -1.01 |
| KYFGTAKARYDFCARDRDELSLKEGDIIKILNKKGQQGWWRGEIYGRVGWFPANYVEEDYS [S18D] | -0.169 |
| KYFGTAKARYDFCARDESELSLKEGDIIKILNKKGQQGWWRGEIYGRVGWFPANYVEEDYS [R17E] | -0.027 |
| KYFGTAKARYDFCARDRSELSLKEGDIIKILNRKGQQGWWRGEIYGRVGWFPANYVEEDYS [K33R] | -0.089 |
| KYFGIAKARYDFCARDRSELSLKEGDIIKILNKKGQQGWWRGEIYGRVGWFPANYVEEDYS [T5I] | -0.248 |
| KYFGTAKARYDFCARDRSELSLKEGDIGKILNKKGQQGWWRGEIYGRVGWFPANYVEEDYS [I28G] | -0.935 |
| KYFGTAKARYDFCARDRSELSLKEGDIIKILNKKGQQGWWRGEINGRVGWFPANYVEEDYS [Y45N] | 0.081 |
| KYVGTAKARYDFCARDRSELSLKEGDIIKILNKKGQQGWWRGEIYGRVGWFPANYVEEDYS [F3V] | -0.029 |
| KYFGTAKARYAFCARDRSELSLKEGDIIKILNKKGQQGWWRGEIYGRVGWFPANYVEEDYS [D11A] | -0.103 |
| KYFGTAKARYDFCARDRSELSLKEGDIIKFLNKKGQQGWWRGEIYGRVGWFPANYVEEDYS [I30F] | -0.776 |
| KYFCTAKARYDFCARDRSELSLKEGDIIKILNKKGQQGWWRGEIYGRVGWFPANYVEEDYS [G4C] | -0.274 |
| KYFGTAKARYDFCARDRCELSLKEGDIIKILNKKGQQGWWRGEIYGRVGWFPANYVEEDYS [S18C] | -0.364 |
| KYEGTAKARYDFCARDRSELSLKEGDIIKILNKKGQQGWWRGEIYGRVGWFPANYVEEDYS [F3E] | -0.192 |
| KYFGTAKARYDFCARDRSELSLKEGDIIKILNKKGQQGWQRGEIYGRVGWFPANYVEEDYS [W40Q] | -0.876 |
| KYFGTAKARYDFCARDRSELQLKEGDIIKILNKKGQQGWWRGEIYGRVGWFPANYVEEDYS [S21Q] | -0.594 |
| KYFGTAKERYDFCARDRSELSLKEGDIIKILNKKGQQGWWRGEIYGRVGWFPANYVEEDYS [A8E] | -0.745 |
| KYFGTAKARYDFCARDRSELSLKEGDIIKILNKKGQQGWWRGEIYYRVGWFPANYVEEDYS [G46Y] | -1.01 |
| KYFGTAKARYDFCARDRSELSLKEGDIIKILNKKGQQGWWMGEIYGRVGWFPANYVEEDYS [R41M] | 0.024 |
| KYFGTAKARYDFCARDRSELSLKEGDIIKILNKKGQQGWWRGEMYGRVGWFPANYVEEDYS [I44M] | -0.292 |
| KYFGTAKARYDFCARDRSELSLKEGDIIKILNKKGQQGWWRGEIYGRVGWFPANYVEEDHS [Y60H] | 0.027 |
| KYFGTAKARYDFVARDRSELSLKEGDIIKILNKKGQQGWWRGEIYGRVGWFPANYVEEDYS [C13V] | 0.1 |
| KYFGTAKARYDFCARDRSELSLKEGDIIKILNKKGQQGWWRGEQYGRVGWFPANYVEEDYS [I44Q] | -0.484 |
| KYFGTFKARYDFCARDRSELSLKEGDIIKILNKKGQQGWWRGEIYGRVGWFPANYVEEDYS [A6F] | -0.694 |
| KYFGTAKARYDFCARDRSELSLKEGDIIKILNKKGQQGWWRGEIYGRVGWFPANYVETDYS [E58T] | -0.129 |
| KYFGTAKARYDFCARDRSELSLKEGDIIKILNKKGQQGWWRGEIYGRVGWFPANYVEEDES [Y60E] | 0.005 |
| KYFGTAKWRYDFCARDRSELSLKEGDIIKILNKKGQQGWWRGEIYGRVGWFPANYVEEDYS [A8W] | -1.04 |
| KYFGTAKARYDFCARDRSELSLKEGDIIKILNKKGQEGWWRGEIYGRVGWFPANYVEEDYS [Q37E] | 0.033 |
| KYFGTAKARYDFCARDRSELSLKEGDIIKILNKKGQQGWWRAEIYGRVGWFPANYVEEDYS [G42A] | -0.523 |
| KYFGTAKARYDFCARDRSELSLKEGDIIKILNKKGQQGWWRGEIYGRVGVFPANYVEEDYS [W50V] | -0.452 |
| KYFGTAKARYDFCQRDRSELSLKEGDIIKILNKKGQQGWWRGEIYGRVGWFPANYVEEDYS [A14Q] | -0.541 |
| KYFGTAKARYDFCARDRSELSLKECDIIKILNKKGQQGWWRGEIYGRVGWFPANYVEEDYS [G25C] | -0.895 |
| KYFGTAKARYDFCARDRSELSLKEGDIIKILNKKGQQGWYRGEIYGRVGWFPANYVEEDYS [W40Y] | -0.182 |
| KYFGTAKARYDFCARKRSELSLKEGDIIKILNKKGQQGWWRGEIYGRVGWFPANYVEEDYS [D16K] | -0.174 |
| KYFGTAKARYDFCARDRSELSLKEGDIIDILNKKGQQGWWRGEIYGRVGWFPANYVEEDYS [K29D] | -0.229 |
| KYFGTAKARYDFCARDRSELSLKEGDIILILNKKGQQGWWRGEIYGRVGWFPANYVEEDYS [K29L] | -0.068 |
| KYFGTAKARYDFCSRDRSELSLKEGDIIKILNKKGQQGWWRGEIYGRVGWFPANYVEEDYS [A14S] | -0.237 |
